Entries and their Kd values follow.
- systemTested: T1, GFP-9S library array, motif 4 ND N98G;D124P (synthetic construct, N98G;D124P)
- T1 chain: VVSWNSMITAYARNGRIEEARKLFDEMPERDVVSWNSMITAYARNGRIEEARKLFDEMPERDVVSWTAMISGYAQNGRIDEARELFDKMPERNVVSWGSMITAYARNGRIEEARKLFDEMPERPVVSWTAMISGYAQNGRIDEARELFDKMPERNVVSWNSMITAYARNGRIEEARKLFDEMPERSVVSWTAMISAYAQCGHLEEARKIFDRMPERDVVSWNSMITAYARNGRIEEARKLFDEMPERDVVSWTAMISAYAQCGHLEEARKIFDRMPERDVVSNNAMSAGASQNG
- measurementDescription: high-throughput RNA pulldown from lysate on Ni-NTA beads; HRP: 50 mM Tris pH 8, 150 mM NaCl, 1 mM beta-mercaptoethanol, 50 ug/ml BSA, 3 ug/ml yeast RNA, 0.5% heparin; ITC and FP: Tris pH 8, 200 mM KCl, 5% glycerol; MST: 50 mM Tris pH 8, 200 mM NaCl, 1 mM DTT, BSA, heparin, 0.05% Tween 20
- testConditions: tags: N-terminal His-eGFP; label: 5' IRDye 800CW
// units = nM; emit number, no label

binder | unitOfMeasurement | Kd
AUUAAACGUGA (ssRNA) [IR-rpoA-A] | nM | 179

# ---- query binder ----
Please look up its Kd: AUUAUACGUGA (ssRNA) [IR-rpoA-U] 128

// data source = paper PMC8809517
